- assay.explanation: Human liver microsomal metabolism, Assay Conditions B
- Format: in vitro ADME
- recorded.conditions: 3 μM compound, 10 minutes, 37° C.
measure: Human Liver Microsomal Metabolism % remaining (Assay Conditions B) (%)

[[record]]
smiles_record = "CC(C)CC(=O)N[C@@H](C(=O)N1CC[C@](O)(c2ccc(Cl)cc2)C(C)(C)C1)C(C)C"
measured_value = 33

[[record]]
smiles_record = "CC(C)[C@@H](NC(=O)C1CCCC1)C(=O)N1CC[C@](O)(c2ccc(Cl)cc2)C(C)(C)C1"
measured_value = 16


###

- assay.explanation: Human liver microsomal metabolism, Assay Conditions A
- Assay type: in vitro ADME
- recorded.conditions: 0.5 μM compound, 10 minutes, 37° C.
- Description: Test compound is received as a 3.5 mM stock solution in 100 percent DMSO. Compound is diluted to create a 50 μM acetonitrile (ACN) solution containing 1.4% DMSO, which is then used as a 100× stock for incubation with microsomes. Each compound is tested in duplicate separately in each of three species in the Metabolic Stability-Human, Rat, and Mouse assay suite or as individual species in the Metabolic Stability-Dog or Metabolic Stability-Monkey suites. […]
measure: Human Liver Microsomal Metabolism % remaining (Assay Conditions A)

[[record]]
smiles_record = "CC(C)CC(=O)N[C@@H](C(=O)N1CC[C@](O)(c2ccc(Cl)cc2)C(C)(C)C1)C(C)C"
measured_value = "67%"

[[record]]
smiles_record = "CC(C)COC(=O)N[C@@H](C(=O)N1CC[C@](O)(c2ccc(Cl)cc2)C(C)(C)C1)C(C)C"
measured_value = "13% (A)"

[[record]]
smiles_record = "CC(C)NC(=O)N[C@@H](C(=O)N1CC[C@](O)(c2ccc(Cl)cc2)C(C)(C)C1)C(C)C"
measured_value = "99% (A)"

[[record]]
smiles_record = "CC[C@@H](C)NC(=O)N[C@@H](C(=O)N1CC[C@](O)(c2ccc(Cl)cc2)C(C)(C)C1)C(C)C"
measured_value = "59% (A)"

[[record]]
smiles_record = "CC(C)[C@@H](NC(=O)CC(C)(C)O)C(=O)N1CC[C@](O)(c2ccc(Cl)cc2)C(C)(C)C1"
measured_value = "100% (A)/100% (B)"

[[record]]
smiles_record = "CC(C)[C@@H](NC(=O)C1CCCC1)C(=O)N1CC[C@](O)(c2ccc(Cl)cc2)C(C)(C)C1"
measured_value = "47%"

